Where do these numbers come from? They come from patent US11065234B2.

# Assay text: Pharmacokinetic Determination (Rat PK)
# Assay type: in vivo
# Stated conditions: plasma, female SD rats, IV, 3.0 mg/kg
Reported endpoint: half-life

> print(dat)
                                   compound  reported.endpoint  measured.value
1  C[C@@H]1Cc2c([nH]c3ccccc23)[C@@H](c2c(F)cc(/C=C/C(=O)O)cc2F)N1C12CC(C1)C2 [Example 11A]          half-life           4.2 h
2  C[C@@H]1Cc2c([nH]c3ccccc23)[C@@H](c2c(F)cc(/C=C/C(=O)O)cc2F)N1[C@H]1CCOC1 [Example 8A]          half-life           3.2 h
3  C[C@@H]1Cc2c([nH]c3ccccc23)[C@@H](c2c(F)cc(/C=C/C(=O)O)cc2F)N1CC12CC(C1)C2 [Example 5A]          half-life           7.7 h
4  CC/C(=C(/c1ccc(/C=C/C(=O)O)cc1)c1ccc2[nH]ncc2c1)c1ccc(F)cc1Cl [ARN810, reference compound]          half-life           4.7 h
5  C[C@@H]1Cc2c([nH]c3ccccc23)[C@@H](c2c(F)cc(/C=C/C(=O)O)cc2F)N1CC(C)(C)F [AZD9496, reference compound]          half-life           7.8 h
